target: cynomolgus DR5-Fc fusion protein (cyno DR5 amino acids 56 to 213 fused with human IgG1 Fc) (cynomolgus; human); assay: ELISA, periplasmic extract, plate coated with cynomolgus DR5-Fc, anti-myc detection
Kind request: treat 0.2 ABS405 nm as inclusive, so ABS405 nm at 0.2 ABS405 nm or higher is criterion met, anything lower is criterion not met.

Example results:
binder	group_label
11D1 (monomeric anti-DR5 NB construct) (VHH, llama VHH; periplasmic extract or purified monovalent material from E. coli; not shown: C-terminal c-myc tag and (His)6 tag coded by the vector) VHH: EVQLVESGGGLVQPGGSLRLSCAASGSIDSINNMGWYRQAPGKQRELVAEITPRGRTNYADSEKSRFTISRDNAKRTVNLQMNSLKPEDTAVYYCNAEVRERGTSWYRPDYWGQGTQVTVSS	criterion met
10F1 (monomeric anti-DR5 NB construct) (VHH, llama VHH; periplasmic extract or purified monovalent material from E. coli; not shown: C-terminal c-myc tag and (His)6 tag coded by the vector) VHH: EVQLVESGGGLVQPGGSLRLSCAASGFTFSRYWMYWVRQAPGKGLEWVSAINSGGGDTYYRDSVRGRFTISRDNFKNTLYLQMNSLKSEDTAVYYCAKAEGPPTFSLIRTMTVDPGAQGTQVTVSS	criterion not met
11H6 (monomeric anti-DR5 NB construct) (VHH, llama VHH; periplasmic extract or purified monovalent material from E. coli; also called 11H6 parent; wild type 11H6; not shown: C-terminal c-myc tag and (His)6 tag coded by the vector) VHH: EVQLVESGGGLVQPGGSLRLSCAASGTFDKINNMGWYRQAPGKQRDLVAQITPGGITDYADSVKGRFTISRDNAKDTMYLQMNSLKPEDTAVYFCNAEILKRAYIDVYVNYWGQGTQVTVSS	criterion not met
7A12 (monomeric anti-DR5 NB construct) (VHH, llama VHH; periplasmic extract or purified monovalent material from E. coli; not shown: C-terminal c-myc tag and (His)6 tag coded by the vector) VHH: EVQLVESGGGLVQAGGSLRLSCAASGRTFSNYAMGWFRQAPGKEREFVAALNWSGGSTYYVDSVKGRFTISRDNAKNTVYLQMNSLKPEDTAVYYCAAAGSFSLGGRPYGDDYWGKGTLVTVSS	criterion met

Prompt line: Could you verify whether the entry 4E6 (monomeric anti-DR5 NB construct) (VHH, llama VHH; periplasmic extract or purified monovalent material from E. coli; also called 4E6 parent; wild type 4E6; not shown: C-terminal c-myc tag and (His)6 tag coded by the vector) VHH: EVQLVESGGGSVQAGDSLRLSCAASGRTFGSIRVGWFRQTPGKEREFVAAINRNDGTTYYADSVKGRFTISRDNAKNTVYMQMASLKPEDTAVYYCAAGLQYNRSADRVPVGAVYWGQGTQVTVSS shows ABS405 nm of no less than 0.2 ABS405 nm?
Response line: criterion met

Cited source: patent US20150259426A1
